# SYSTEM: UniProtKB P0DMS8
# Sequence (P0DMS8 1-318): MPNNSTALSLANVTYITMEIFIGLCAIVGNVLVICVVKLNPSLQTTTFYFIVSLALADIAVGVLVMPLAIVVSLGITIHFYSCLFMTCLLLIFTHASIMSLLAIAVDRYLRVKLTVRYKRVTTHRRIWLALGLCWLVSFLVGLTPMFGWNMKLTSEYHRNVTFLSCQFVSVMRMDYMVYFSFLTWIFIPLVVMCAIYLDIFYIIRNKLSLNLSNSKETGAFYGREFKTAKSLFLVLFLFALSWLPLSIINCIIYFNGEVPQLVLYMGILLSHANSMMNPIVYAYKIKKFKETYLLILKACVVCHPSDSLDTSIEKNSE
# PROTOCOL SUMMARY: Human adenosine A3 receptor binding in the presence of [125I]AB-MECA
# CONDITION INFO: radioligand [125I]AB-MECA, CHO-hA3 membranes
pKi: −log10 of the molar value.

- SMILES STR: "COc1ccc(C(=O)Nc2nc3ccc(I)cc3c(NCc3cccs3)c2C#N)cc1"
  pKi: 8.82

###

# SYSTEM: UniProt P0DMS8
# Sequence (P0DMS8 1-318): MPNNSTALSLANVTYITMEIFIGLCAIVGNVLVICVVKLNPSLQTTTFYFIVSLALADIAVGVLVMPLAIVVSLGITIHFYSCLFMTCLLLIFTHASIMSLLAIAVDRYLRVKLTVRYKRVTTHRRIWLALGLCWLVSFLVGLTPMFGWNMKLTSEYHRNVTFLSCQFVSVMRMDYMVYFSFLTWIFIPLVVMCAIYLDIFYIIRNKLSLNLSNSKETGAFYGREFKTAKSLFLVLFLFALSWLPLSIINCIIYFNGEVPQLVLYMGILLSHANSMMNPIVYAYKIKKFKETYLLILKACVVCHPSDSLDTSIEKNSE
# PROTOCOL SUMMARY: Human adenosine A3 receptor binding in the presence of the radioactive iodine-containing compound of Example 2/a
# CONDITION INFO: radioligand of Example 2/a, 4 μg CHO-hA3 preparation, Cheng-Prusoff from IC50; read-out: Ki, the radioligand given in Example 2/a
pKi: −log10 of the molar value.
REPORTED PROPERTY: pKi

- SMILES STR: "COc1ccc(C(=O)Nc2nc3ccc(I)cc3c(NCc3cccs3)c2C#N)cc1"
  TEST RESULT: 8.89
